ASSAY_TARGET: IDH1^R132C (Homo sapiens, UniProt O75874, R132C)
Construct: purchased not specified
Sequence (O75874 whole entry R132C): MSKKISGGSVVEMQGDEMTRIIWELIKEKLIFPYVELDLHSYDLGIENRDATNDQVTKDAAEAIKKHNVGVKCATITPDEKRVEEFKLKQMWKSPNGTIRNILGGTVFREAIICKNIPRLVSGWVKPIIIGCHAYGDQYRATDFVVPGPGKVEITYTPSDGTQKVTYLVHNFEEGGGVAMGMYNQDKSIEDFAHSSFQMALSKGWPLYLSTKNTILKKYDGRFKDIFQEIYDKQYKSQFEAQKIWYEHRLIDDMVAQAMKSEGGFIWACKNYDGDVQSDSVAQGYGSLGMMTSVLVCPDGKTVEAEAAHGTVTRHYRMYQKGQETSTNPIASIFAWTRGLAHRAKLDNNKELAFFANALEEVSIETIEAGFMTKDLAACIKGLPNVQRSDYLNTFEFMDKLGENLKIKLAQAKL
TEST_PROTOCOL: NADPH depletion assay, IDH1 R132C
Type: biochemical
pIC50: −log10 of the molar value.
RESULT_TYPE: pIC50

Sample records with pIC50:
# STRUCTURE_STRING, pIC50
data = [
    ("C=CC(=O)N1CCN(Cc2ccc([C@H](C)Nc3ncc4ccc(=O)n(CC(C)(C)C)c4n3)cc2)CC1", 7.68),
    ("C[C@H](Nc1ncc2ccc(=O)n(CC(C)(C)C)c2n1)c1ccc(C(=O)NC2CCC(F)(F)CC2)c(Cl)c1", 7.01),
]

[I] C=CC(=O)N1CC[C@@H](Oc2ccc([C@H](C)Nc3ncc4ccc(=O)n(CC)c4n3)cc2)C1
[II] C=C(C)C(=O)N1CCN(Cc2ccc([C@H](C)Nc3ncc4ccc(=O)n(CC(C)(C)C)c4n3)cc2)CC1
(Q) # returns the entry with the larger pIC50; inputs I and II Give the label of your selection.
(A) II
(II: 7.60, I: 5.78)
